- Study Target: T1, human BCMA on BCMA expressing cell lines (human, UniProt Q02223 1-184)
- T1 sequence: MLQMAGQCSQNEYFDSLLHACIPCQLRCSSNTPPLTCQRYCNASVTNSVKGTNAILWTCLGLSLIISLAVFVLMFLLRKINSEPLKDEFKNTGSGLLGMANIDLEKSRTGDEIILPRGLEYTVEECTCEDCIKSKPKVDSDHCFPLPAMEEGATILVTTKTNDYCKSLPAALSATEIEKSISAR
- Test Method Notes: cell-based or functional assay
Parameter TDCC EC50 (EJM cells): see the listing below.
Give your result in nM as a bare value.

>>> number("BCMA targeting trispecific protein 02H01 (other, not shown: large carriers; small tags and cut ends, trispecific) VHH: EVQLVESGGGLVQPGRSLTLSCAASTNIFSKSPMGWYRQAPGKQRELVAAIHGSSTLYADSVKGRFTISRDNAKNSIYLQMNSLRPEDTALYYCNKVPWGDYHPRNVYWGQGTQVTVSS")
0.0542
>>> number("BCMA targeting trispecific protein 01H09 (other, trispecific; not shown: the C-terminal His6 follows those missing domains and is left out) VHH: EVQLVESGGGLVQPGRSLTLSCAASTNIMSISPMGWYRQAPGKQRELVAAIHGNSTLYADSVKGRFTISRDNAKNSIYLQMNSLRPEDTALYYCNKVPWGDYHPGNVYWGQGTQVTVSS")
0.00221
>>> number("BCMA targeting trispecific protein 01H06 (other, not shown: large carriers; small tags and cut ends) VHH: EVQLVESGGGLVQPGRSLTLSCAASTSDFSISPMGWYRQAPGKQRELVAAIHGFETLYADSVKGRFTISRDNAKNSIYLQMNSLRPEDTALYYCNKVPWGDYHPGNVYWGQGTQVTVSS")
0.001
>>> number("BCMA targeting trispecific protein 01G11 (other, not shown: large carriers; small tags and cut ends, trispecific) VHH: EVQLVESGGGLVQPGRSLTLSCAASTNIPSISPMGWYRQAPGKQRELVAAIHGASTLYADSVKGRFTISRDNAKNSIYLQMNSLRPEDTALYYCNKVPWGDYHPRNVAWGQGTQVTVSS")
0.00398
>>> number("BCMA targeting trispecific protein 01B12 (other, not shown: large carriers; small tags and cut ends, trispecific) VHH: EVQLVESGGGLVQPGRSLTLSCAASTNIFSTSPMGWYRQAPGKQRELVAAIHGFQTLYADSVKGRFTISRDNAKNSIYLQMNSLRPEDTALYYCNKVPWGDYHPRNVVWGQGTQVTVSS")
0.0273
>>> number("BCMA targeting trispecific protein 01E07 (other, trispecific; not shown: anti-albumin domain, anti-CD3 domain and the linkers of the trispecific (TriTAC) chain; the C-terminal 6xHis tag follows these missing domains and is left out) VHH: EVQLVESGGGLVQPGRSLTLSCAASTNIPSISPMGWYRQAPGKQRELVAAIHGQSTLYADSVKGRFTISRDNAKNSIYLQMNSLRPEDTALYYCNKVPWGDYHPRNVQWGQGTQVTVSS")
0.0192
>>> number("BCMA targeting trispecific protein 02F02 (other, trispecific; also called 02F02 TriTAC; not shown: The C-terminal 6xHis tag is left out because it follows these missing domains) VHH: EVQLVESGGGLVQPGRSLTLSCAASTNIFSKSPMGWYRQAPGKQRELVAAIHGSSTLYADSVKGRFTISRDNAKNSIYLQMNSLRPEDTALYYCNKVPWGDYHPGNVYWGQGTQVTVSS")
0.00136
>>> number("BCMA targeting trispecific protein 01H04 (other, trispecific; not shown: anti-albumin domain, anti-CD3 domain and the linkers of the trispecific (TriTAC) format) VHH: EVQLVESGGGLVQPGRSLTLSCAASTNIFSKSPMGWYRQAPGKQRELVAAIHGQSTLYADSVKGRFTISRDNAKNSIYLQMNSLRPEDTALYYCNKVPWGDYHPRNVTWGQGTQVTVSS")
0.0147

Specify measured TDCC EC50 (EJM cells) for BCMA targeting trispecific protein 01B01 (other, not shown: large carriers; small tags and cut ends, trispecific) VHH: EVQLVESGGGLVQPGRSLTLSCAASTNIPSISPMGWYRQAPGKQRELVAAIHGESTLYADSVKGRFTISRDNAKNSIYLQMNSLRPEDTALYYCNKVPWGDYHPRNVAWGQGTQVTVSS . 0.0195

Hey, just so you know, these numbers are from patent US20240327534A1.
